tested on: SN12C renal; assay: NCI-60 one-dose screen, 48 h (100 = growth as untreated, 0 = no growth, -100 = all killed); settings: 10 µM unless noted
Compounds without any hit were thinned out: in the full panel of roughly 83,000, 20% have a hit.
value_kind: growth (%)
Write it as a number; the unit % goes unstated.

S=C(NCCc1ccccc1)Nc1ccc(OCc2nc3ccc(Cl)cc3[nH]2)cc1    11.6
COc1sc(/C=N/NC(=O)c2[nH]c3ccc(Br)cc3c2-c2ccccc2)cc1Cl    -26.6

Qu. Recorded growth for COc1ccc(-n2c(NC(=O)N3CCN(C)CC3)c(C#N)c3ccccc32)cc1 with SN12C renal, please?
Ans. 23

Qu. Recorded growth for Cc1ccc(C2CC(c3ccc(NC(=O)Nc4ccccc4)cc3)=NN2c2ccc(S(C)(=O)=O)cc2)cc1 (configuration not stated) with SN12C renal, please?
Ans. -94

Qu. Recorded growth for CCCSc1nnc(-c2c(C)nc3sccn23)o1 with SN12C renal, please?
Ans. 87.1

---

system: SW-620 colon; test: NCI-60 one-dose screen, 48 h (100 = growth as untreated, 0 = no growth, -100 = all killed); conditions: 10 µM unless noted
The panel holds about 83,000 compounds, 20% with a hit somewhere; the sample as a whole holds those more often.
Param threshold (70%) applies to growth; output Fulfilled when value >= threshold, Not fulfilled when value < threshold.

Oc1ccc(Cl)c(Nc2nc(SCCN3CCOCC3)nc3c2cnn3CC(Cl)c2ccc(Br)cc2)c1 (centres undefined)    Not fulfilled

Qu. Say whether COc1ccc(N=Nc2c(N)nn3c(-c4ccc5c(c4)C=S=C5)ccnc23)cc1 shows growth of 70% or more.
Ans. Not fulfilled

Qu. Say whether c1n[nH]cc1-c1nc2ccc3[nH]ncc3c2c2c1CC1(CCOCC1)CC2 shows growth of 70% or more.
Ans. Not fulfilled

---

tested on: EKVX NSCLC; experiment: NCI-60 one-dose screen, 48 h (100 = growth as untreated, 0 = no growth, -100 = all killed); settings: 10 µM unless noted
About 83,000 compounds went through this panel and 20% of them were active in at least one assay; those are over-represented in the sample as a whole. Calls of active or inactive are those of the source. Rule for the calls: active = growth percent below 10; inactive = the rest.
value_kind: growth

Cc1ccccc1NC(=O)c1cccc(NC(=O)CCl)c1    97% (inactive)
COC(=O)c1cc(C(=O)C(C)(C)C)n2c3ccccc3c3ccccc3c12    101% (inactive)
Cc1ccc2nc(SCc3ccccc3F)n(-c3ccccc3)c(=O)c2c1    59.9% (inactive)
Cc1nc2sccn2c1-c1nnc(SCC(C)C)o1    74.5% (inactive)
CCOC(=O)/C(F)=C/C1CC1CCc1ccc(OCC)cc1 (centres undefined)    47.7% (inactive)

Qu. Look up growth: COc1c(B(O)O)cc(F)cc1-c1nc2ccc3[nH]ncc3c2c2c1COCC2
Ans. 75.3% (inactive)

Qu. Look up growth: CCN1C(=O)N(CC)C2NNC(Sc3c(C(=O)O)c4ccccc4n(CCC(C)C)c3=O)=NC21 (centres undefined)
Ans. 20.8% (inactive)

Qu. Look up growth: Cc1ccc(S(=O)(=O)N(CCn2ccnc2[N+](=O)[O-])CCn2ccnc2[N+](=O)[O-])cc1
Ans. 95.5% (inactive)

Qu. Look up growth: N#Cc1cc(-c2ccc3ncnc(N4CCc5cc(F)c(Cl)cc54)c3c2)cnc1N
Ans. 24.6% (inactive)

Qu. Look up growth: Cn1cc(Nc2ncnc(-c3ccc(N4CCCC4)c(C#N)c3)n2)cn1
Ans. 95.3% (inactive)

Qu. Look up growth: CN1CCN(c2ccc3c4c(cccc24)C(=O)N(c2cccc(-c4nn(-c5ccccc5)cc4-c4nc5ccccc5s4)c2)C3=O)CC1
Ans. 107% (inactive)

Qu. Look up growth: CCCSc1nnc(-c2sc3nc4ccccc4n3c2C)o1
Ans. 103% (inactive)

Qu. Look up growth: O=C(NC(=S)N1CCN(c2ncnc3c2cnn3-c2ccccc2)CC1)c1ccc(Br)cc1
Ans. 76.4% (inactive)

Qu. Look up growth: Cc1ccc(Nc2nnc(-c3c[nH]c4ccccc34)o2)c(C)c1
Ans. 21.9% (inactive)
